Origin of the recorded values: paper PMC9182007

molecular target: human serum albumin (HSA) (Homo sapiens, UniProt P02768); details: Table S9, external group
Sequence (P02768 25-609): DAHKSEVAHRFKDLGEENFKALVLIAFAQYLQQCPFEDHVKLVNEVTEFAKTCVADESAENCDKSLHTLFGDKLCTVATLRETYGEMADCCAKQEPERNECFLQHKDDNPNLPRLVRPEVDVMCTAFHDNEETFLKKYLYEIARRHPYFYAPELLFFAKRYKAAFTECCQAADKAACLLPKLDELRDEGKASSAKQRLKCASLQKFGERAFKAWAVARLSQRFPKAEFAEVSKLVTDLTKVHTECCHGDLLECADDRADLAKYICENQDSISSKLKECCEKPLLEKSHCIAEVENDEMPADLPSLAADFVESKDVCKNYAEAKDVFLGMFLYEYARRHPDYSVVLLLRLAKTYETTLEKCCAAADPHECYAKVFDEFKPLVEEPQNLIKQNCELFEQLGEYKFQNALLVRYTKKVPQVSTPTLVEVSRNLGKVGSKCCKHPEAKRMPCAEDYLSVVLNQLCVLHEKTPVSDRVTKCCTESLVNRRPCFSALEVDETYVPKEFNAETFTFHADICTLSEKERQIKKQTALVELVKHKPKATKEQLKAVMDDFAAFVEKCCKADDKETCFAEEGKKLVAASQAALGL
What kHSA was measured for each of the following?
Quick one: just the number, no unit, thanks!

Provide only the value of recorded kHSA for O=C(c1ccccc1)c1ccc2n1CCC2C(=O)O (centres unmarked) 9.65

Give the reported value of kHSA for this record: `CC[C@@H](CO)NCCN[C@@H](CC)CO` 1.73

Give the reported value of kHSA for this record: CC(N)C12CC3CC(CC(C3)C1)C2 (centres unmarked) 0.16

Annotate the compound `CN(C)CCC=C1c2ccccc2CCc2ccccc21` with its measured kHSA. 5.87

Give the reported value of kHSA for this record: `Nc1ccc(O)c(C(=O)O)c1` 0.18

Return reported kHSA. Input compound: CCC(C)n1ncn(-c2ccc(N3CCN(c4ccc(OCC5COC(Cn6cncn6)(c6ccc(Cl)cc6Cl)O5)cc4)CC3)cc2)c1=O (centres unmarked) 9.65

Given NC(=O)N1c2ccccc2CC(=O)c2ccccc21 [oxcarbamazepine] , respond with its kHSA. 0.40

Supply recorded kHSA for `CCS(=O)(=O)CCn1c([N+](=O)[O-])cnc1C` here. 0.12

Complete the entry with kHSA for `CCC1(c2ccccc2)C(=O)NCNC1=O` 0.22

Quick one: give measured kHSA for `CN1CCC[C@@H]1Cc1c[nH]c2ccc(CCS(=O)(=O)c3ccccc3)cc12` 3.78

Quick one: give measured kHSA for `CC[C@@H](C(N)=O)N1CCCC1=O` 0.07

Tell me kHSA reported for `CC(C)(C)NC[C@H](O)COc1nsnc1N1CCOCC1` 0.13

Provide only the value of recorded kHSA for CCOC(=O)C1=C(C)NC(C)=C(C(=O)OC)C1c1cccc([N+](=O)[O-])c1 (centres unmarked) 3.55

Quick one: give measured kHSA for `CO[C@H]1/C=C/O[C@@]2(C)Oc3c(C)c(O)c4c(O)c(c(/C=N/N5CCN(C)CC5)c(O)c4c3C2=O)NC(=O)/C(C)=C\C=C\[C@H](C)[C@H](O)[C@@H](C)[C@@H](O)[C@@H](C)[C@H](OC(C)=O)[C@@H]1C` 0.03

Given the compound CN(C)CCC=C1c2ccccc2COc2ccccc21 [doxepin] , write its reported kHSA. 4.25

Note kHSA for the compound shown: `CCC[C@@H]1C[C@@H](C(=O)N[C@@H]([C@H]2O[C@H](SC)[C@H](O)[C@@H](O)[C@H]2O)[C@@H](C)O)N(C)C1` 0.82

Output kHSA of CCCCN1CCCCC1C(=O)Nc1c(C)cccc1C (centres unmarked) 1.18

###

experiment: NP TLC on non-impregnated control plates; type: physicochemical; conditions: Table S3, non-impregnated NP plate; acetonitrile/acetate buffer pH 7.4/methanol 60:20:20
What CNP (Rf, control NP plate) was measured for each of the following?
Give the value as a plain number.

Supply CNP (Rf, control NP plate) value. Item: `O=C(CCCN1CCC(O)(c2ccc(Cl)cc2)CC1)c1ccc(F)cc1` 0.66

Output CNP (Rf, control NP plate) of `CC[C@H]1OC(=O)[C@H](C)[C@@H](O[C@H]2C[C@@](C)(OC)[C@@H](O)[C@H](C)O2)[C@H](C)[C@@H](O[C@@H]2O[C@H](C)C[C@H](N(C)C)[C@H]2O)[C@](C)(O)C[C@@H](C)/C(=N\OCOCCOC)[C@H](C)[C@@H](O)[C@]1(C)O` 0.91

Tell me measured CNP (Rf, control NP plate) for `CCCCC(=O)N(Cc1ccc(-c2ccccc2-c2nnn[nH]2)cc1)[C@H](C(=O)O)C(C)C` please. 0.89

Give CNP (Rf, control NP plate) for the following compound: `CCC[C@H](N[C@@H](C)C(=O)N1[C@H](C(=O)O)C[C@@H]2CCCC[C@@H]21)C(=O)OCC` 0.47

Answer with the recorded CNP (Rf, control NP plate) of `CC1(C)S[C@@H]2[C@H](NC(=O)[C@H](N)c3ccc(O)cc3)C(=O)N2[C@H]1C(=O)O` only. 0.68

Output measured CNP (Rf, control NP plate) for this item: COc1ccnc(C[S+]([O-])c2nc3ccc(OC(F)F)cc3[nH]2)c1OC (stereo not drawn) 0.93

Identify the reported CNP (Rf, control NP plate) for the following entry. `CN1CCN=C(c2ccccc2)c2cc(Cl)ccc21` 0.91

Let me know recorded CNP (Rf, control NP plate) for OCCOCCN1CCN(C(c2ccccc2)c2ccc(Cl)cc2)CC1 (stereo not drawn) [hydroxyzine] , thanks. 0.55

Return the recorded CNP (Rf, control NP plate) value; entry: `CCCCCOC(=O)Nc1nc(=O)n([C@@H]2O[C@H](C)[C@@H](O)[C@H]2O)cc1F` 0.92

Please supply the value of reported CNP (Rf, control NP plate) for the item `CCOC(=O)[C@H](CCc1ccccc1)N[C@@H](C)C(=O)N1Cc2ccccc2C[C@H]1C(=O)O` 0.44

Give the reported value of CNP (Rf, control NP plate) for this record: `Cc1cncc(CN2CCC(=C3c4ccc(Cl)cc4CCc4cccnc43)CC2)c1` 0.42

Give recorded CNP (Rf, control NP plate). `C[C@H]1COc2c(N3CCN(C)CC3)c(F)cc3c(=O)c(C(=O)O)cn1c23` 0.17

Kindly indicate its recorded CNP (Rf, control NP plate). Item: `Cc1ccc(-c2cc(C(F)(F)F)nn2-c2ccc(S(N)(=O)=O)cc2)cc1` 0.98

Answer with reported CNP (Rf, control NP plate) of CN1C[C@H](C(=O)N[C@]2(C)O[C@@]3(O)[C@@H]4CCCN4C(=O)[C@H](Cc4ccccc4)N3C2=O)C[C@@H]2c3cccc4[nH]cc(c34)C[C@H]21 [dihydroergotamine] 0.72

Read the entry `COc1ccc(CCN2CCC(Nc3nc4ccccc4n3Cc3ccc(F)cc3)CC2)cc1` and write its reported CNP (Rf, control NP plate). 0.62

Look up and report measured CNP (Rf, control NP plate) for this entry: `CN1CCN(C2=Nc3cc(Cl)ccc3Nc3ccccc32)CC1` 0.45

// fetch CNP (Rf, control NP plate) given entry CCN(CC)CC#CCOC(=O)C(O)(c1ccccc1)C1CCCCC1 (stereo not drawn) 0.68

Complete the entry with CNP (Rf, control NP plate) for `CC(C)(O)c1ccccc1CC[C@@H](SCC1(CC(=O)O)CC1)c1cccc(/C=C/c2ccc3ccc(Cl)cc3n2)c1` 0.95

Answer with the recorded CNP (Rf, control NP plate) for the compound listed here: `CN(C)CCc1c[nH]c2ccc(C[C@H]3COC(=O)N3)cc12` 0.31

Input O=C(O)C1N=C(c2ccccc2)c2cc(Cl)ccc2NC1=O (stereo not drawn) [clorazepate] , output reported CNP (Rf, control NP plate). 0.94

Look up CNP (Rf, control NP plate) of `CC(=O)[C@H]1CC[C@H]2[C@@H]3CCC4=CC(=O)CC[C@]4(C)[C@H]3CC[C@]12C` and report it. 0.96

Return CNP (Rf, control NP plate) (reported value) for this compound: CC(C)NCC(O)COc1cccc2ccccc12 (stereo not drawn) 0.54

For the compound `C[C@]12CC[C@@H]3c4ccc(O)cc4CC[C@H]3[C@@H]1CCC2=O` , report CNP (Rf, control NP plate). 0.99

Provide one value: measured CNP (Rf, control NP plate) of `O=C1NC(=O)C(c2ccccc2)(c2ccccc2)N1` 0.97

Query CNP (Rf, control NP plate) for COc1cc(N)c(Cl)cc1C(=O)NC1CCN(CCCOc2ccc(F)cc2)CC1OC (stereo not drawn) [cisapride] 0.64

Complete the entry with CNP (Rf, control NP plate) for `CC(=O)Nc1ccc(O)cc1` 0.93

Fill in CNP (Rf, control NP plate) for record CC(C)NCC(O)COc1ccc(CCOCC2CC2)cc1 (stereo not drawn) 0.66

Quote CNP (Rf, control NP plate) reported for CCN(CC)C(=O)Nc1ccc(OCC(O)CNC(C)(C)C)c(C(C)=O)c1 (stereo not drawn) please. 0.45

Note CNP (Rf, control NP plate) for the compound shown: CC(C)NCC(O)COc1cccc2[nH]ccc12 (stereo not drawn) 0.53

Respond only with CNP (Rf, control NP plate) recorded for `COc1ccc2cc([C@H](C)C(=O)O)ccc2c1` 0.92

Using the record for CC(CN1c2ccccc2Sc2ccccc21)N(C)C (stereo not drawn) , state its measured CNP (Rf, control NP plate). 0.43

Given the compound `Cc1ncc2n1-c1ccc(Cl)cc1C(c1ccccc1F)=NC2` , write its reported CNP (Rf, control NP plate). 0.82

Name the recorded CNP (Rf, control NP plate) of the item `CC(C)C[C@H]1C(=O)N2CCC[C@H]2[C@]2(O)O[C@](NC(=O)[C@@H]3C=C4c5cccc6[nH]c(Br)c(c56)C[C@H]4N(C)C3)(C(C)C)C(=O)N12` in your answer. 0.95

###

assay: HPLC on immobilized artificial membrane column (HPLCIAM); assay type: physicochemical; conditions: Table S5, retention factor, IAM column, phosphate buffer pH 7.4/acetonitrile 80:20
For each entry below, report its k IAM value.
Please give only the number in your answer, with no unit.

In one line, give reported k IAM of the entry `Cn1c(=O)c2c(ncn2C)n(C)c1=O` . 0.18

Dear colleague, please send me the reported k IAM for `OCCOCCN1CCN(C2=Nc3ccccc3Sc3ccccc32)CC1` when you can. 17.02

Quick one: give measured k IAM for `O=c1n(CCCN2CCN(c3cccc(Cl)c3)CC2)nc2ccccn12` 9.30

Give me measured k IAM, please, for this compound: CNCCC(Oc1ccc(C(F)(F)F)cc1)c1ccccc1 (stereo not shown) 66.64

Using known records, supply k IAM for COc1cc2nc(N3CCN(C(=O)C4COc5ccccc5O4)CC3)nc(N)c2cc1OC (stereo not shown) 0.22

Please give the documented k IAM of CC(=O)CC(c1ccc([N+](=O)[O-])cc1)c1c(O)c2ccccc2oc1=O (stereo not shown) 0.53

Consider the compound `Cc1cnc(NC(=O)C2=C(O)c3ccccc3S(=O)(=O)N2C)s1` . State its measured k IAM. 0.49

Give k IAM for the following compound: `OCCN1CCN(CCC=C2c3ccccc3Sc3ccc(C(F)(F)F)cc32)CC1` 51.21

Please give measured k IAM of the following entry: `Cc1nc2n(c(=O)c1CCN1CCC(c3noc4cc(F)ccc34)CC1)CCCC2` 4.83

Annotate the compound `CCCc1nc2c(C)cc(-c3nc4ccccc4n3C)cc2n1Cc1ccc(-c2ccccc2C(=O)O)cc1` with its measured k IAM. 4.68

For the compound `COc1ccc(CCN2CCC(Nc3nc4ccccc4n3Cc3ccc(F)cc3)CC2)cc1` , give its measured k IAM value. 26.27

# return recorded k IAM for input OC(CCN1CCCCC1)(c1ccccc1)C1CC2C=CC1C2 (stereo not shown) 41.47

Return reported k IAM. Input compound: `CC(C)c1nc(N(C)S(C)(=O)=O)nc(-c2ccc(F)cc2)c1/C=C/[C@@H](O)C[C@@H](O)CC(=O)O` 0.96

Return k IAM for the following compound: `CN1CCN=C(c2ccccc2)c2cc(Cl)ccc21` 34.65

Retrieve k IAM measured for `CN1C(C(=O)Nc2ccccn2)=C(O)c2ccccc2S1(=O)=O` and print it. 0.16

Output measured k IAM for this item: `C[C@H](CS)C(=O)N1CCC[C@H]1C(=O)O` 0.01

Note k IAM for the compound shown: O=C1Nc2ccc(Cl)cc2C(c2ccccc2Cl)=NC1O (stereo not shown) 9.04

Item OCCOCCN1CCN(C(c2ccccc2)c2ccc(Cl)cc2)CC1 (stereo not shown) [hydroxyzine] : provide k IAM 13.82

Identify measured k IAM associated with `CN(C)CCc1c[nH]c2ccc(Cn3cncn3)cc12` 2.53
